target: human SGLT2 (Homo sapiens (Human), UniProt P31639); experiment: hSGLT2 inhibitory activity, sodium-dependent 14C-AMG glucose transport assay in CHO cells expressing hSGLT2; settings: 14C-AMG uptake, CHO cells expressing hSGLT2, 37° C. for 2 h
Sequence (P31639 whole entry): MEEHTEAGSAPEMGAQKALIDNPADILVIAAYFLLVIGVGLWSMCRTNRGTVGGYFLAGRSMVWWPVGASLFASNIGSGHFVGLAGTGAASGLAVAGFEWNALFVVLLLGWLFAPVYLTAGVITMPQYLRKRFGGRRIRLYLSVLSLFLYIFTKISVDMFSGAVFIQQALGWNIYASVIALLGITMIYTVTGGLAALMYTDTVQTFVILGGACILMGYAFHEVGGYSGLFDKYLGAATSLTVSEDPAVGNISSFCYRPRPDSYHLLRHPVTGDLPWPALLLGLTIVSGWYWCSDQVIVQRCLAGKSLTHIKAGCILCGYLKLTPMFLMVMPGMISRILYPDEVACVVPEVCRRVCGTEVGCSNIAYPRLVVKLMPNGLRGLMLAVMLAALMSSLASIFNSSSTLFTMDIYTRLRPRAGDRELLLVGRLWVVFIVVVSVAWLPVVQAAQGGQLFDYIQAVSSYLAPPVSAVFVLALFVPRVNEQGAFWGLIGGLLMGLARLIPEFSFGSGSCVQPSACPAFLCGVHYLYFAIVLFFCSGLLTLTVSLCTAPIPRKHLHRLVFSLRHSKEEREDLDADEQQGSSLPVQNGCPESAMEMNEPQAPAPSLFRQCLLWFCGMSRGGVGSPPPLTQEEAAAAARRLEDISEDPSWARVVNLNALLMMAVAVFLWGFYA
Recorded Metric: IC50 (nM)

OC[C@H]1O[C@@H](c2ccc(Cl)c(Cc3nnc(-c4ccnnc4)s3)c2)[C@H](O)[C@@H](O)[C@@H]1O = 190
OC[C@H]1O[C@@H](c2ccc(Cl)c(Cc3nnc(C4CCCC4)s3)c2)[C@H](O)[C@@H](O)[C@@H]1O = 445

a = OC[C@H]1OC(c2ccc(Cl)c(Cc3nnc(-c4ccncc4)s3)c2)[C@H](O)[C@@H](O)[C@@H]1O (stereo partly shown)
b = CC1CCC(Cc2nnc(Cc3cc(C4O[C@H](CO)[C@@H](O)[C@H](O)[C@H]4O)ccc3Cl)s2)CC1 (stereo partly shown)
c = CCCCCOc1ccc(Cc2cc([C@@H]3O[C@H](CO)[C@@H](O)[C@H](O)[C@H]3O)ccc2Cl)nn1
d = Cc1cc(-c2nnc(Cc3cc([C@@H]4O[C@H](CO)[C@@H](O)[C@H](O)[C@H]4O)ccc3Cl)s2)no1
e = OC[C@H]1O[C@@H](c2ccc(Cl)c(Cc3nnc(-c4ccsc4)s3)c2)[C@H](O)[C@@H](O)[C@@H]1O
Q: Put the compounds in ascending order of IC50. Respond with the label ranking, as requested.
Result: e, c, a, d, b
(e: 3.51 nM, c: 17 nM, a: 53 nM, d: 257 nM, b: 460 nM)

Every entry's value here was drawn from patent US8541380B2.
